test: Inhibitory activity against Translocase I
readout: IC50 (µM)

P: NC[C@H]1O[C@@H](O[C@@H](CNc2ccc(Oc3ccccc3)cc2)[C@@H]2C[C@@H](O)[C@H](n3ccc(=O)[nH]c3=O)O2)[C@H](O)[C@@H]1O
Q: CCCCCCCCCCNC[C@H](O[C@@H]1O[C@H](CN)[C@@H](O)[C@H]1O)[C@@H]1C[C@@H](O)[C@H](n2ccc(=O)[nH]c2=O)O1.O=C(O)C(F)(F)F
R: CCCCCN(CCCCC)C[C@H](O[C@@H]1O[C@H](CN)[C@@H](O)[C@H]1O)[C@@H]1C[C@@H](O)[C@H](n2ccc(=O)[nH]c2=O)O1
In: // rank the listed compounds by IC50, lowest value first // ordering of labels required in reply
Out: P, Q, R

P: NC[C@H]1O[C@@H](O[C@@H](CNCCc2ccc(Cl)cc2)[C@@H]2C[C@@H](O)[C@H](n3ccc(=O)[nH]c3=O)O2)[C@H](O)[C@@H]1O
Q: NC[C@H]1O[C@@H](O[C@@H](CNC(=O)c2ccc(Br)cc2)[C@@H]2C[C@@H](O)[C@H](n3ccc(=O)[nH]c3=O)O2)[C@H](O)[C@@H]1O
In: Between P and Q , which one has the lower reported IC50 value? Write the label of whichever entry you select.
Out: P

P: CN(Cc1ccc(-c2ccccc2)cc1)C[C@H](O[C@@H]1O[C@H](CN)[C@@H](O)[C@H]1O)[C@@H]1C[C@@H](O)[C@H](n2ccc(=O)[nH]c2=O)O1
Q: COc1ccc(CNC[C@H](O[C@@H]2O[C@H](CN)[C@@H](O)[C@H]2O)[C@@H]2C[C@@H](O)[C@H](n3ccc(=O)[nH]c3=O)O2)cc1OC
In: // returns P or Q , whichever has the lower IC50 Write down the label attached to your selection.
Out: P

1: NC[C@H]1O[C@@H](O[C@@H](CNC(=O)Cc2ccc(-c3ccccc3)cc2)[C@@H]2C[C@@H](O)[C@H](n3ccc(=O)[nH]c3=O)O2)[C@H](O)[C@@H]1O
2: NC[C@H]1O[C@@H](O[C@@H](CNCC2CCCO2)[C@@H]2C[C@@H](O)[C@H](n3ccc(=O)[nH]c3=O)O2)[C@H](O)[C@@H]1O (some centres not stated)
3: COC(=O)c1ccc(CNC[C@H](O[C@@H]2O[C@H](CN)[C@@H](O)[C@H]2O)[C@@H]2C[C@@H](O)[C@H](n3ccc(=O)[nH]c3=O)O2)cc1
4: NC[C@H]1O[C@@H](O[C@@H](CNCCCN2CCOCC2)[C@@H]2C[C@@H](O)[C@H](n3ccc(=O)[nH]c3=O)O2)[C@H](O)[C@@H]1O
In: Rank the items in ascending order with respect to IC50. Output spec: a listing of the labels in the requested order.
Out: 1, 3, 4, 2
(1: 0.43 µM, 3: 1.2 µM, 4: 3.8 µM, 2: 9.2 µM)

---

assay: Inhibitory activity against Translocase I
pIC50: −log10 of the molar value.
readout: pIC50

a: NC[C@H]1O[C@@H](O[C@@H](CNC(=O)c2ccccc2)[C@@H]2C[C@@H](O)[C@H](n3ccc(=O)[nH]c3=O)O2)[C@H](O)[C@@H]1O
b: CN(Cc1ccccc1)C[C@H](O[C@@H]1O[C@H](CN)[C@@H](O)[C@H]1O)[C@@H]1C[C@@H](O)[C@H](n2ccc(=O)[nH]c2=O)O1
c: NC[C@H]1O[C@@H](O[C@@H](CNCCCn2ccnc2)[C@@H]2C[C@@H](O)[C@H](n3ccc(=O)[nH]c3=O)O2)[C@H](O)[C@@H]1O
In: Would you mind ranking these compounds by ascending pIC50? I'd appreciate it if you listed the labels in the requested order.
Out: a, b, c

P: NC[C@H]1O[C@@H](O[C@@H](CNCc2cccs2)[C@@H]2C[C@@H](O)[C@H](n3ccc(=O)[nH]c3=O)O2)[C@H](O)[C@@H]1O
Q: NC[C@H]1O[C@@H](O[C@@H](CN2CCCCC2)[C@@H]2C[C@@H](O)[C@H](n3ccc(=O)[nH]c3=O)O2)[C@H](O)[C@@H]1O
R: CC(C)(C)c1ccc(CNC[C@H](O[C@@H]2O[C@H](CN)[C@@H](O)[C@H]2O)[C@@H]2C[C@@H](O)[C@H](n3ccc(=O)[nH]c3=O)O2)cc1
In: Please list these compounds in decreasing order of pIC50. Would you mind listing the labels in the order requested?
Out: R, P, Q
(R: 6.24, P: 5.64, Q: 5.23)
